Listed substances paired with reported R3 Selectivity
measured-target: PACAP-R3 (Homo sapiens)
Sequence (P41587 24-438): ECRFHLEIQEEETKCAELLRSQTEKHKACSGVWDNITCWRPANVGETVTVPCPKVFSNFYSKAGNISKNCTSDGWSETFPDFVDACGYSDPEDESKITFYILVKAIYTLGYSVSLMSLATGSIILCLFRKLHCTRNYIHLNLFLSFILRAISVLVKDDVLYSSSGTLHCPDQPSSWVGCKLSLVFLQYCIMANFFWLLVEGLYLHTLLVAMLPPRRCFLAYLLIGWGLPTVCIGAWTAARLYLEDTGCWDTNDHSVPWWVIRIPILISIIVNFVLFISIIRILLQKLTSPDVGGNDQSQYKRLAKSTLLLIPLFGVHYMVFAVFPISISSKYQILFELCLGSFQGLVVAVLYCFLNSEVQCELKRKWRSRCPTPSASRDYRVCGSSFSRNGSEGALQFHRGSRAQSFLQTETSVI
assay-comment: Cyclic AMP SPA on CHO cells expressing PACAP R3
Assay type: cell-based
Set-up: expressed in transfected cells; host or cells: CHO cells (Geneticin selection)
test-settings: ratio of EC50 at R2 versus EC50 at R3
No end group written: not given here.
Answer with the value's number alone.

For this substance ( H-HSDAVFTDNYTRLRKQMAAKKYLNSIKNKD [Peptide R3P155] ), measured R3 Selectivity is 100

The substance identified as HSDAVFTDNYTRLRKQMAAKKYLNSIFNKR [Peptide R3P120] registered its R3 Selectivity at 50

# R3 Selectivity of HSDAVFTDNYTRLRKQLAAKKYLNDIKK-NH2 [Peptide R3P13] = 33

More entries:
Lookup result for HSDAVFTDNYTRLRKQMAAKKYLNSIKNMR [Peptide R3P143] ; measured R3 Selectivity: 30

R3 Selectivity reading for HSDAVFTDNYTRLRKQMAVKKYLNDILN [Peptide R3P48] : 8

Field R3 Selectivity (entry HSDAVFTDNYTRLRKQVAAKKYLNSIKKKR [Peptide R3P78] ) reads 230

The substance listed as HSDAVFTDNYTRLRKQMAAKKYLNSIQNRI [rR3P184] shows R3 Selectivity equal to 30

----------
measured-target: PACAP-R3 (Homo sapiens)
assay-comment: Cyclic AMP SPA on CHO cells expressing PACAP R3
Format: cell-based
Set-up: expressed in transfected cells; host or cells: CHO cells (Geneticin selection)
test-settings: cAMP SPA, CHO cells transfected with PACAP-R3; concentration at which 50% of maximum PACAP27 activity is achieved; NA = no detectable activities; read-out: R3 EC50
No end group written: not given here.
Parameter pEC50: see the listing below.
Please express pEC50 as -log10 of the molar concentration.

Query HSDAVFTDNYTRLRKQMASKKYLNSIPNRI [rR3P183] yields pEC50 of 8.27

Measured pEC50 of HSDAVFTDNYTRLRKQMAAKKYLNSIKNIR [Peptide R3P141] : 9.70

pEC50 reported for this sequence HSDAVFTDNYTRLRKQMAAKKYLNSIKNKA [Peptide R3P153] : 9.70

Reported pEC50 for HSDAVFTDNYTRLRKQVAVKKYLQSIKKK [Peptide R3P81] was 9.30

sequence HSDAVFTDNYTRLRKQVAAKKYLQSILNKR [Peptide R3P93] , pEC50 observed: 9.85

So, HSDAVFTDNYTRLRKQMAGKKYLNSIKNRI [rR3P175] ? Its pEC50 was 8.66

----------
log10 of EC50 by entry:
measured-target: PACAP-R3 (Homo sapiens)
assay-comment: Cyclic AMP SPA on CHO cells expressing PACAP R3
Format: cell-based
Design: expressed in transfected cells; host or cells: CHO cells (Geneticin selection)
test-settings: cAMP SPA, CHO cells transfected with PACAP-R3; concentration at which 50% of maximum PACAP27 activity is achieved; NA = no detectable activities; read-out: R3 EC50
No end group written: not given here.
Scale: log10; quantity: EC50; unit before log: nM

// field: log10 of EC50; key: H-HSDAVFTDNYTRLRKQMAAKHYLNSIKNKRY [Peptide R3P74] ; value = -0.22

HSDAVFTDNYTRLRKQLAAKKYLNDILNGGT [Peptide R3P27] yielded log10 of EC50 of -0.10

log10 of EC50 in this record for H-HSDAVFTDNYTRLRKQMAGKKYLNSIQNRI-OH [rR3P185] : 0.65

Entry HSDAVFTDNYTRLRKQMAFKKYLNSIKNKR [Peptide R3P100] , log10 of EC50 reported as -0.52

Others:
For this substance ( HSDAVFTDNYTRLRKQMAAKKYLNSIKNKK [Peptide R3P161] ), measured log10 of EC50 is -0.70

// field: log10 of EC50; key: HSDGIFTDSYSRYRKQMAVKKYLKAVL-NH2 [PAC24] ; value = -0.70

Entry H-HSDGIFTDSYSRYRKQMAKKKYLAAVL-NH2 [PAC19] ; log10 of EC50 = -0.40

The recorded log10 of EC50 for entry H-HSDAVFTDNYTRLRKQMAAKKYLNSIGNKR-OH [Peptide R3P121] equals 0.00

For record HSDAVFTDNYTRLRKQMAGKKYLNSIPNRI [rR3P180] the listed log10 of EC50 is 0.83

log10 of EC50 recorded for this substance, HSDAVFTDNYTRLRKQVAAKKYLNSIKNKRY [Peptide R3P68] , is -0.30
